Overview of reported IC50 across a group of molecules:
Tested target: human D2R/β-arrestin (Homo sapiens (Human))
Sequence (P14416 whole entry): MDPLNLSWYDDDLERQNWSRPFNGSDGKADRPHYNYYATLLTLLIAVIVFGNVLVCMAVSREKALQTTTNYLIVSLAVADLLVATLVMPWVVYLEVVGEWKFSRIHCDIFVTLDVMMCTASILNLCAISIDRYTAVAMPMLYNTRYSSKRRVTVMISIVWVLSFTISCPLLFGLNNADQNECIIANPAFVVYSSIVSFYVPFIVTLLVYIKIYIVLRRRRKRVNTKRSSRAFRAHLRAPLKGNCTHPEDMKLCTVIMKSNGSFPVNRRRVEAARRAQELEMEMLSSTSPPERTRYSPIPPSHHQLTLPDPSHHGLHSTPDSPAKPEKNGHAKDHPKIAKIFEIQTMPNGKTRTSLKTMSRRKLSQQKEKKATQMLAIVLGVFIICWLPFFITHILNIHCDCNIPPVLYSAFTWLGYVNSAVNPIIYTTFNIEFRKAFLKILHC
Assay procedure: cell-based
Experimental context: cAMP Antagonist, CHO-K1 cells expressing human D2R/β-arrestin; antagonist mode, 2.5 μM forskolin and 2.7 nM quinpirole
Readout name: IC50

[[record]]
molecule = "CC1(Oc2ccc(Cl)cc2)CCN(CCOc2ccc(F)cc2C(F)(F)F)CC1 [Compound 157]"
result = "100 to 1000 nM"

[[record]]
molecule = "c1ccc(OCCN2CCC3(Cc4ccccc4O3)C2)cc1 (stereo not drawn) [Compound 181]"
result = "< 100 nM"

[[record]]
molecule = "OC1(Cc2ccccc2F)CCN(CCOc2ccccc2)C1 (stereo not drawn) [Compound 300, reference compound]"
result = "> 30000 nM"

[[record]]
molecule = "CC1(Oc2ccc(Cl)cc2)CCN(CCOc2cn[nH]c2)CC1 [Compound 186]"
result = "100 to 1000 nM"

[[record]]
molecule = "CC(=O)NC1(C)CCN(C[C@H]2COc3ccccc3O2)CC1 [Compound 208]"
result = "> 30000 nM"

[[record]]
molecule = "Clc1ccc(N2CCCC23CCN(CC2COc4ccccc4O2)CC3)cc1 (stereo not drawn) [Compound 178]"
result = "< 100 nM"

[[record]]
molecule = "CC1(Oc2ccc(Cl)cc2)CCN(CCCCOc2ccccc2Cl)C1 (stereo not drawn) [Compound 28]"
result = "< 100 nM"

[[record]]
molecule = "CC1(Oc2ccc(Cl)cc2)CCN(CCOC2CCCCC2)CC1 [Compound 143]"
result = "> 30000 nM"

[[record]]
molecule = "COc1cc2c(cc1O)C1Cc3ccc(O)c(OC)c3CN1CC2 (racemic) [D,L-Stepholidine, reference compound]"
result = "< 100 nM"

[[record]]
molecule = "CC1(Oc2ccc(Cl)cc2)CCCN(CCOc2ccc3scnc3c2)C1 (stereo not drawn) [Example 99]"
result = "< 100 nM"

[[record]]
molecule = "CC1(Oc2cccc(Cl)c2)CCN(CCOc2ccccc2)C1 (stereo not drawn) [Example 42]"
result = "> 30000 nM"

[[record]]
molecule = "CC1(Oc2ccc(Cl)cc2)CCN(CCOc2ccc(F)cc2F)C1 (stereo not drawn) [Compound 22]"
result = "100 to 1000 nM"

[[record]]
molecule = "CC1(Oc2cccc(C(F)(F)F)c2)CCN(CCOc2ccccc2)C1 (stereo not drawn) [Example 55]"
result = "> 30000 nM"

[[record]]
molecule = "CC(C)C1(Oc2ccc(Cl)cc2)CCN(CCOc2ccccc2C(F)(F)F)CC1 [Compound 192]"
result = "100 to 1000 nM"

[[record]]
molecule = "CC1(Oc2ccc(Cl)cc2)CCN(CC(=O)Nc2ccccc2C(F)(F)F)CC1 [Compound 129]"
result = "> 30000 nM"

